Target: Rex (Staphylococcus aureus)
Sequence (P60386 1-211): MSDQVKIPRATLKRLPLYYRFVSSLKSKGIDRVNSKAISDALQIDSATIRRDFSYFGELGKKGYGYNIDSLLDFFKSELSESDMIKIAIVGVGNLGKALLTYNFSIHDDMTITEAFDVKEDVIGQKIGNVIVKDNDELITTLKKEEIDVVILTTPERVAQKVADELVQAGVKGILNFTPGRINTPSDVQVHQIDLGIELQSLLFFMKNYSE
Assay: isothermal titration calorimetry
Assay type: binding
Assign Kd to each entry below.
Could you give me the number in µM? Just the number is fine.

Answer with the recorded Kd for the compound listed here: NC(=O)c1ccc[n+]([C@@H]2O[C@H](COP(=O)(O)OP(=O)(O)OC[C@H]3O[C@@H](n4cnc5c(N)ncnc54)[C@H](O)[C@@H]3O)[C@@H](O)[C@H]2O)c1 [NAD^+]
150

Answer with the recorded Kd for the compound listed here: NC(=O)C1=CN([C@@H]2O[C@H](COP(=O)(O)OP(=O)(O)OC[C@H]3O[C@@H](n4cnc5c(N)ncnc54)[C@H](O)[C@@H]3O)[C@@H](O)[C@H]2O)C=CC1 [NADH]
0.095
